- TARGET OR TEST SYSTEM: Toll-like receptor 7 (Homo sapiens, UniProt Q9NYK1)
- Sequence (Q9NYK1 whole entry): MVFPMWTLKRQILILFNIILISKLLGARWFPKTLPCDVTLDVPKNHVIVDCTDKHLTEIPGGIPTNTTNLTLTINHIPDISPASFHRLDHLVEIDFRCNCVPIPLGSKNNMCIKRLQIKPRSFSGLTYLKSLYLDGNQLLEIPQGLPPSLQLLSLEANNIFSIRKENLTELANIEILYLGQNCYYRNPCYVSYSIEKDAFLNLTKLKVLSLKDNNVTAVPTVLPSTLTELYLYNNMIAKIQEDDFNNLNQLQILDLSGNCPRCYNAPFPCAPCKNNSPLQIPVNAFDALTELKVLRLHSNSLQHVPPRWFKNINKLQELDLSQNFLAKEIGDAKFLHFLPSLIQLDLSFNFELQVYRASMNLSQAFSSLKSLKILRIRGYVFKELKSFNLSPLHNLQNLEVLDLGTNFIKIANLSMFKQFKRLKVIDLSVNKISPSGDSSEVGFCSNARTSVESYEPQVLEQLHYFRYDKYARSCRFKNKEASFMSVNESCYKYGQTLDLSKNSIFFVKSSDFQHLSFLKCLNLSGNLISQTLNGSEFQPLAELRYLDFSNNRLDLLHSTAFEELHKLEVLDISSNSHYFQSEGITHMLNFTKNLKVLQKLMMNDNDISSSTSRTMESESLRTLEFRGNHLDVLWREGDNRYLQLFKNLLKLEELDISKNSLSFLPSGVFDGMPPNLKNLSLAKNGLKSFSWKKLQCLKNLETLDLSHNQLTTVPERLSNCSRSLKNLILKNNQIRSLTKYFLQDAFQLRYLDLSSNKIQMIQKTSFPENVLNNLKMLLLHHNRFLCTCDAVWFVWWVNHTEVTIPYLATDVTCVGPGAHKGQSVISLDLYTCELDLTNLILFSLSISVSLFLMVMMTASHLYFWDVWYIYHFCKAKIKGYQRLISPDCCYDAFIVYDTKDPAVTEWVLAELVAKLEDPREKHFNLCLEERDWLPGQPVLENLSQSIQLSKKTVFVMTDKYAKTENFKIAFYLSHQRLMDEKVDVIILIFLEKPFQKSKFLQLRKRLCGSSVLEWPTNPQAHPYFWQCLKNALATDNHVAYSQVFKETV
- ASSAY PROCEDURE: Antagonist activity at TLR7 in human PBMC cells assessed as reduction in IFN alpha measured after 20 hrs by AlphaLISA assay
- Assay type: cell-based
pIC50: −log10 of the molar value.
READOUT: pIC50

I = Cc1cc(N2CCc3c(c(C)nn3CC34CCC(N5C[C@@H](C)O[C@@H](C)C5)(CC3)CC4)C2)c2cnn(C)c2n1
II = Cc1cc(N2CCc3c(c(C)nn3CC34CCC(N5CCC5)(CC3)CC4)C2)c2cnn(C)c2n1
Query :: Between I and II , which one shows the larger pIC50 value? Identify your selection by its label.
Result :: II

====

- TARGET OR TEST SYSTEM: Toll-like receptor 4 (Homo sapiens)
- Sequence (O00206 whole entry): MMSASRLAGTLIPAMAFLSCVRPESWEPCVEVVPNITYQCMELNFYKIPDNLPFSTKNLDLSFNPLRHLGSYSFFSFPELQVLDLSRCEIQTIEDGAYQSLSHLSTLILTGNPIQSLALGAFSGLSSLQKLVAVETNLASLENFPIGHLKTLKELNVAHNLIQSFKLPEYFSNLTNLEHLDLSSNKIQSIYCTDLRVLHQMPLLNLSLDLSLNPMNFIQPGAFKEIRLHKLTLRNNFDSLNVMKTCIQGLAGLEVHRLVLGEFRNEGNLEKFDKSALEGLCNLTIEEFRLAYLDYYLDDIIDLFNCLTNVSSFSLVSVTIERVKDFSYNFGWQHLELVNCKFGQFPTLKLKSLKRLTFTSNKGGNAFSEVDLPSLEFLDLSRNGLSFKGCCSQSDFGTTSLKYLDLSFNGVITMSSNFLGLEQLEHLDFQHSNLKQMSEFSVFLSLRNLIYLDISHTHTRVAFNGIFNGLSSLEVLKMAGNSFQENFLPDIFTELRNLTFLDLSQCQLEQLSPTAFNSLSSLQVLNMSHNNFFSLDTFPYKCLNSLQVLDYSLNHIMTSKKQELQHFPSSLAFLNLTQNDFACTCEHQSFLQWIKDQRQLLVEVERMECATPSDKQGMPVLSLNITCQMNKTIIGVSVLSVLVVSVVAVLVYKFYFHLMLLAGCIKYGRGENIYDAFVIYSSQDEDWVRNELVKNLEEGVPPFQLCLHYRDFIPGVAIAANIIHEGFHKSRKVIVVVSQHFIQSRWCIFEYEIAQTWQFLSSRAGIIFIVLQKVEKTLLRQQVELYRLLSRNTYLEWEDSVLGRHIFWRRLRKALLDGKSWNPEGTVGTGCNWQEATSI
- ASSAY PROCEDURE: Antagonist activity at TLR4 in human PBMC cells assessed as reduction in IL-6 level measured after 20 hrs by AlphaLISA assay
- Type: cell-based
pIC50: −log10 of the molar value.
READOUT: pIC50

Query :: Report pIC50 for Cc1cc(N2CCc3c(c(C)nn3CC34CCC(NC(=O)[C@@H]5COCCN5)(CC3)CC4)C2)c2cnn(C)c2n1 [MHV-370] please.
Result :: < 5.00

====

- ASSAY PROCEDURE: Metabolic stability in rat liver microsomes assessed as intrinsic clearance
- Type: ADME, Microsome
- CONDITIONS USED: read-out: CLH
READOUT: microsomal CLint (µL/min/mg)

Use these answered entries as a reference point.
| SMILES INPUT | READOUT | READOUT VALUE |
| --- | --- | --- |
| Cc1cc(N2CCc3c(c(C)nn3CC34CCC(N5CCCC5)(CC3)CC4)C2)c2cnn(C)c2n1 | microsomal CLint | 55 |
| Cc1cc(N2CCc3c(c(C)nn3CC34CCC(N5CCN(C)CC5=O)(CC3)CC4)C2)c2cnn(C)c2n1 | microsomal CLint | 50 |

I = Cc1cc(N2CCc3c(c(C)nn3CC34CCC(N5CCN(C)C(=O)C5)(CC3)CC4)C2)c2cnn(C)c2n1
II = Cc1cc(N2CCc3c(c(C)nn3CC34CCC(N)(CC3)CC4)C2)c2cnn(C)c2n1
Query :: Between I and II , which one shows the larger microsomal CLint value? Identify your selection by its label.
Result :: I
(I: 87 µL/min/mg, II: 36 µL/min/mg)

====

- ASSAY PROCEDURE: Permeability of the compound by PAMPA
- Assay type: ADME
READOUT: log(permeability)

Use these answered entries as a reference point.
| SMILES INPUT | log(permeability) |
| --- | --- |
| Cc1cc(N2CCc3c(c(C)nn3CC34CCC(NC(=O)[C@@H]5CNCCO5)(CC3)CC4)C2)c2cnn(C)c2n1 | -5.2 |
| Cc1cc(N2CCc3c(c(C)nn3CC34CCC(N)(CC3)CC4)C2)c2cnn(C)c2n1 | -5.1 |
| Cc1cc(N2CCc3c(c(C)nn3CC34CCC(NC5COC5)(CC3)CC4)C2)c2cnn(C)c2n1 | -4.5 |

I = Cc1cc(N2CCc3c(c(C)nn3CC34CCC(NCC(=O)N(C)C)(CC3)CC4)C2)c2cnn(C)c2n1
II = Cc1cc(N2CCc3c(c(C)nn3CC34CCC(NCC(F)F)(CC3)CC4)C2)c2cnn(C)c2n1
Query :: # return whichever of I and II has the smaller log(permeability) Identify your selection by its label.
Result :: I
(I: -5.4, II: -3.7)

====

- ASSAY PROCEDURE: AUC in mouse at 20 mg/kg, po
- Assay type: ADME, organism-based
- Design: dose 20 mg/kg, route po
- CONDITIONS USED: in vivo
READOUT: AUC (µM·h)
All answers are understood in µM·h, so give the number only.

Query :: Report AUC for Cc1cc(N2CCc3c(c(C)nn3CC34CCC(N)(CC3)CC4)C2)c2cnn(C)c2n1 please.
Result :: 1.15

====

- ASSAY PROCEDURE: AUC in rat at 1 mg/ml, po
- Assay type: ADME
- Parameters: dose 1 mg/ml, route po
- CONDITIONS USED: in vivo
READOUT: AUC (µM·h)

| SMILES INPUT | READOUT | READOUT VALUE |
| --- | --- | --- |
| CN[C@@H](C)C(=O)NC12CCC(Cn3nc(C)c4c3CCN(c3cc(C)nc5c3cnn5C)C4)(CC1)CC2 | AUC | 0.483 |
| CCNCC(=O)NC12CCC(Cn3nc(C)c4c3CCN(c3cc(C)nc5c3cnn5C)C4)(CC1)CC2 | AUC | 0.618 |
| Cc1cc(N2CCc3c(c(C)nn3CC34CCC(NC(=O)[C@@H]5COCCN5)(CC3)CC4)C2)c2cnn(C)c2n1 | AUC | 2.82 |

====

Target or system Voltage-gated inwardly rectifying potassium channel KCNH2 (Homo sapiens): recorded IC50 listed per item.
All answers are understood in µM, so give the number only.

Query :: Provide the documented IC50 with Voltage-gated inwardly rectifying potassium channel KCNH2 (Homo sapiens) as the system for COCCNC12CCC(Cn3nc(C)c4c3CCN(c3cc(C)nc5c3cnn5C)C4)(CC1)CC2
Sequence (Q12809 whole entry): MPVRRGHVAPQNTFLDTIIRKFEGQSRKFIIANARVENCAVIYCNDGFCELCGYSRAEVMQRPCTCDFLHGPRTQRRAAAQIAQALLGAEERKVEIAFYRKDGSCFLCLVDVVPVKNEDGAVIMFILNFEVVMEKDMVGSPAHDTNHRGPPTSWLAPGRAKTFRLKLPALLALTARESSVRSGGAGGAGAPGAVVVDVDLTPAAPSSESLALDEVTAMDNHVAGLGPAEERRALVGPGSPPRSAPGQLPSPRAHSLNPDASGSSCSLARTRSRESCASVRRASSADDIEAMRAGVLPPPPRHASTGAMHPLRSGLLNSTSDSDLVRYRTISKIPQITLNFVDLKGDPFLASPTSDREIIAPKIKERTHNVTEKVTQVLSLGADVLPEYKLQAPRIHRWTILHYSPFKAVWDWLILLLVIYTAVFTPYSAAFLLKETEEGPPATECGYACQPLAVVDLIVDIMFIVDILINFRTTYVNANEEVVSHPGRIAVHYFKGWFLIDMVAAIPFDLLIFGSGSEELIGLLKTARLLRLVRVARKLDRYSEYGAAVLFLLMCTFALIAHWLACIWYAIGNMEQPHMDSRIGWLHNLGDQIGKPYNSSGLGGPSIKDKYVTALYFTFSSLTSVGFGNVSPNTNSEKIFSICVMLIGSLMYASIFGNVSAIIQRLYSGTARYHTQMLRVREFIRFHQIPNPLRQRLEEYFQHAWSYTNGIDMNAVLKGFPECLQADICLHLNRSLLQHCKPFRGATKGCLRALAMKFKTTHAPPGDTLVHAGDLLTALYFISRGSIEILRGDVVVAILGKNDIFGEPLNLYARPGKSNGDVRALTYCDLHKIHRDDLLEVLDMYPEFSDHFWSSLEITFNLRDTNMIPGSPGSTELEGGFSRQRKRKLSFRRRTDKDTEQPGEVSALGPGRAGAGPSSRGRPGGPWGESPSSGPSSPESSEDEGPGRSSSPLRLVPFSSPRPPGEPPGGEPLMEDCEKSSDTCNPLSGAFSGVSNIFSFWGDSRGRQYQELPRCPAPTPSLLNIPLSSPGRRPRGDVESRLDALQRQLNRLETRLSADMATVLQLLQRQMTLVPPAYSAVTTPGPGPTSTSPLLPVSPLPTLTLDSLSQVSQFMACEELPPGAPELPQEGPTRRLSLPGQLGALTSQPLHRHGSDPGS
Result :: 22

Query :: Provide the documented IC50 with Voltage-gated inwardly rectifying potassium channel KCNH2 (Homo sapiens) as the system for Cc1cc(-c2cnc(OCC34CCC(N)(CC3)CC4)c(C)c2)c2cnn(C)c2n1
Result :: 3.4

Query :: Provide the documented IC50 with Voltage-gated inwardly rectifying potassium channel KCNH2 (Homo sapiens) as the system for Cc1cc(N2CCc3c(c(C)nn3CC34CCC(N5CCCC5)(CC3)CC4)C2)c2cnn(C)c2n1
Result :: 11

Query :: Provide the documented IC50 with Voltage-gated inwardly rectifying potassium channel KCNH2 (Homo sapiens) as the system for Cc1cc(N2CCc3c(c(C)nn3CC34CCC(N)(CC3)CC4)C2)c2cnn(C)c2n1
Result :: 29

====

- ASSAY PROCEDURE: Oral bioavailability in mouse at 20 mg/kg
- Format: ADME, organism-based
- CONDITIONS USED: in vivo
READOUT: bioavailability (%)
All answers are understood in %, so give the number only.

Query :: Report bioavailability for Cc1cc(N2CCc3c(c(C)nn3CC34CCC(N)(CC3)CC4)C2)c2cnn(C)c2n1 please.
Result :: 4

====

- TARGET OR TEST SYSTEM: Cytochrome P450 3A4 (Homo sapiens, UniProt P08684)
- Sequence (P08684 whole entry): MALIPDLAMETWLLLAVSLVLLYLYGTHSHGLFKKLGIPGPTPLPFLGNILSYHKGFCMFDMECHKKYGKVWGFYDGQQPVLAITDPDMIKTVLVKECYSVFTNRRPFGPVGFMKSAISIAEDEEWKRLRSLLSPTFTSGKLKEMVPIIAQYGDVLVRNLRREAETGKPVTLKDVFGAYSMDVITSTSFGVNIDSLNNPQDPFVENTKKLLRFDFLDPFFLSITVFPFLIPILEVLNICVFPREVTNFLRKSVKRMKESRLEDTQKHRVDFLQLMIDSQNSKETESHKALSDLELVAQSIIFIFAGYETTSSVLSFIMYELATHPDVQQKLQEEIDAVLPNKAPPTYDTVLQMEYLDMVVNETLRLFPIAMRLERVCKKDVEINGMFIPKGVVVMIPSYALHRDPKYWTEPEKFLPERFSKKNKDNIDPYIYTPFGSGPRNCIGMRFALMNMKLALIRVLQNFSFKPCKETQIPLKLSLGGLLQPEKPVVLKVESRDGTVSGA
- ASSAY PROCEDURE: Time dependent inhibition of CYP3A4 (unknown origin) assessed as Kobs
- Assay type: ADME
READOUT: Kobs (min⁻¹)

Use these answered entries as a reference point.
| SMILES INPUT | Kobs, min⁻¹ |
| --- | --- |
| CNC12CCC(Cn3nc(C)c4c3CCN(c3cc(C)nc5c3cnn5C)C4)(CC1)CC2 | 0.008 |
| CCNCC(=O)NC12CCC(Cn3nc(C)c4c3CCN(c3cc(C)nc5c3cnn5C)C4)(CC1)CC2 | 0.01 |
| CCN(C)CC(=O)NC12CCC(Cn3nc(C)c4c3CCN(c3cc(C)nc5c3cnn5C)C4)(CC1)CC2 | 0.013 |
| Cc1cc(N2CCc3c(c(C)nn3CC34CCC(NC(=O)[C@H]5COCCN5)(CC3)CC4)C2)c2cnn(C)c2n1 | 0.018 |

I = Cc1cc(N2CCc3c(c(C)nn3CC34CCC(N)(CC3)CC4)C2)c2cnn(C)c2n1
II = Cc1cc(N2CCc3c(c(C)nn3CC34CCC(N(C)C)(CC3)CC4)C2)c2cnn(C)c2n1
III = Cc1cc(N2CCc3c(c(C)nn3CC34CCC(N5CCN(C)C(=O)C5)(CC3)CC4)C2)c2cnn(C)c2n1
IV = Cc1cc(N2CCc3c(c(C)nn3CC34CCC(NC(=O)CN(C)C)(CC3)CC4)C2)c2cnn(C)c2n1
Query :: Order the entries by their reported Kobs, beginning at the minimum. Output spec: a listing of the labels in the requested order.
Result :: I, IV, III, II
(I: 0.002 min⁻¹, IV: 0.006 min⁻¹, III: 0.015 min⁻¹, II: 0.032 min⁻¹)
